Origin of values: patent US20240174622A1

TESTED SYSTEM: human serum albumin (HSA) (Homo sapiens, UniProt P02768)
Sequence (P02768 25-609): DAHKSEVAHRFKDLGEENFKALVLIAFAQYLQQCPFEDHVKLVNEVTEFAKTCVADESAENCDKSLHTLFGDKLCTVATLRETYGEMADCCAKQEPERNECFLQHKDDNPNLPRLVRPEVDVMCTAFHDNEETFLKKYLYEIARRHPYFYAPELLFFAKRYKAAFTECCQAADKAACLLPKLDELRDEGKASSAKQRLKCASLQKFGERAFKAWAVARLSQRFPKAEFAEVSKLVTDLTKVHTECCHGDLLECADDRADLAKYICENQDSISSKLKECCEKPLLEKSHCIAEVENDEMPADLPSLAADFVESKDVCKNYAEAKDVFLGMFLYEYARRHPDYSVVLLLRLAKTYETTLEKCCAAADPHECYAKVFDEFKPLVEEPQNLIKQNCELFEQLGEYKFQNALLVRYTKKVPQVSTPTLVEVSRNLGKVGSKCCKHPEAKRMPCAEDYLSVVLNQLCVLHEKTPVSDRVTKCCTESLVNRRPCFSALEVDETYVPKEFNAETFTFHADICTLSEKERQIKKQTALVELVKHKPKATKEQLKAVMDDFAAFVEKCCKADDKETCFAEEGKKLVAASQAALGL
TEST DESCRIPTION: Evaluation of binding to albumin (HSA solution, PBS control)
COND: left to stand in HSA solution (45 mg/mL)

COMPOUND: O=C([O-])CN(CCN(CCc1ccc(NC(=O)CCCCCNC(=O)CCC(=O)NCCCC[C@H](NC(=O)N[C@@H](CCC(=O)O)C(=O)O)C(=O)O)cc1)CCN(CC(=O)[O-])Cc1cccc(C(=O)[O-])n1)Cc1cccc(C(=O)[O-])n1.[111In+3] [[^111In]In-Neunpa-1, reference compound]
TESTED SYSTEM: human serum albumin (HSA) (Homo sapiens, UniProt P02768)
radioactivity in the eluate (in words): low
